Cited source: the Immune Epitope Database (IEDB)

biological target: HLA-A*69:01; assay: IEDB peptide-MHC binding, purified MHC/competitive/fluorescence; filed as Kd, often an IC50 or EC50 that approximates it; bounds were set here for any values at or beyond the usual limits of such assays; conditions: source organism: Yersinia mollaretii ATCC 43969
Measure: Kd

> print(dat)
   sequence.content  endpoint.result
1         DEQEFFYSQ          ≥ 20 µM

----------
molecular target: HLA-A*02:16; test: IEDB peptide-MHC binding, purified MHC/competitive/fluorescence; filed as Kd, often an IC50 or EC50 that approximates it; bounds were set here for any values at or beyond the usual limits of such assays; details: source organism: Human immunodeficiency virus 1
pKd: −log10 of the molar value.
Quick reference for pKd among some sequences
Measure: pKd

> print(dat)
   sequence.content  qualifier.symbol  endpoint.result
1          FLGKIWSS                 ≥            10.00
2         SLVKHHMYV                 =             9.24
